Reference for the values: ChEMBL document CHEMBL1138784

Test system: OVCAR-4
ASSAY INFO: Percent growth of ovarian OVCAR-4 cell line was determined at 10e-6 M concentration after 48 hr of exposing
Format: functional, Homo sapiens
Assign True whenever Growth does not fall below -40%; assign False whenever it does.

>>> assigned_label("COc1ccc2c(c1)-c1nn(CCN(C)C)c3ccc(C(=O)NCCCN(C)CCCNC(=O)c4ccc5c6c(c7cc(OC)ccc7nc46)NN5CCN(C)C)c(c13)N2")
"True"
>>> assigned_label("CN(C)CCn1c(=O)c2ccc(NCCCN(C)CCCNc3ccc4c(=O)n(CCN(C)C)c(=O)n5c6ccccc6c(=O)c3c45)c3c(=O)c4ccccc4n(c1=O)c23")
"False"
>>> assigned_label("CN(C)CCn1c(=O)c2ccc(NCCCN(C)CCCNc3ccc4c(=O)n(CCN(C)C)c(=O)n5c6ccc(O)cc6c(=O)c3c45)c3c(=O)c4cc(O)ccc4n(c1=O)c23")
"True"
>>> assigned_label("CN(C)CCN1Nc2c3ccccc3nc3c(C(=O)NCCCN(C)CCCNC(=O)c4ccc5c6c(c7ccccc7nc46)NN5CCN(C)C)ccc1c23")
"True"
>>> assigned_label("CN(C)CCn1c(=O)c2ccc(NCCCN(C)CCCNc3ccc4c(=O)n(CCN(C)C)c(=O)n5c6ccc([N+](=O)[O-])cc6c(=O)c3c45)c3c(=O)c4cc([N+](=O)[O-])ccc4n(c1=O)c23")
"False"
>>> assigned_label("COc1ccc2c(c1)c(=O)c1c(NCCCN(C)CCCNc3ccc4c(=O)n(CCN(C)C)c(=O)n5c6ccc(OC)cc6c(=O)c3c45)ccc3c(=O)n(CCN(C)C)c(=O)n2c31")
"True"

* * *

Quick reference: Resistance index of the listed items.
Test system: LoVo
ASSAY INFO: Ratio of IC50 against sensitive LoVo cell line and that of doxorubicin resistance LoVo cell line was determined after 1 hr exposure
Format: functional, Homo sapiens
READOUT LABEL: Resistance index

>>> observed_value("CN(C)CCn1c(=O)c2ccc(NCCCN(C)CCCNc3ccc4c(=O)n(CCN(C)C)c(=O)n5c6ccc([N+](=O)[O-])cc6c(=O)c3c45)c3c(=O)c4cc([N+](=O)[O-])ccc4n(c1=O)c23")
9
>>> observed_value("COc1ccc2c(c1)c(=O)c1c(NCCCN(C)CCCNc3ccc4c(=O)n(CCN(C)C)c(=O)n5c6ccc(OC)cc6c(=O)c3c45)ccc3c(=O)n(CCN(C)C)c(=O)n2c31")
4.2
>>> observed_value("CN(C)CCn1c(=O)c2ccc(NCCCN(C)CCCNc3ccc4c(=O)n(CCN(C)C)c(=O)n5c6ccccc6c(=O)c3c45)c3c(=O)c4ccccc4n(c1=O)c23")
2.1
>>> observed_value("COc1ccc2c(c1)-c1nn(CCN(C)C)c3ccc(C(=O)NCCCN(C)CCCNC(=O)c4ccc5c6c(c7cc(OC)ccc7nc46)NN5CCN(C)C)c(c13)N2")
58
>>> observed_value("COc1cccc2c1C(=O)c1c(O)c3c(c(O)c1C2=O)C[C@@](O)(C(=O)CO)C[C@@H]3O[C@H]1C[C@H](N)[C@H](O)[C@H](C)O1")
11
>>> observed_value("CN(C)CCn1c(=O)c2ccc(NCCCN(C)CCCNc3ccc4c(=O)n(CCN(C)C)c(=O)n5c6ccc(O)cc6c(=O)c3c45)c3c(=O)c4cc(O)ccc4n(c1=O)c23")
8.3
>>> observed_value("CN(C)CCN1Nc2c3ccccc3nc3c(C(=O)NCCCN(C)CCCNC(=O)c4ccc5c6c(c7ccccc7nc46)NN5CCN(C)C)ccc1c23")
24
